# reported koff; entries follow
molecular target: Plasmodium falciparum Hsp70-x (full length) (Plasmodium falciparum); assay: SPR; PfHsp70-x or PfHsp70-xT immobilised on ProteOn GLC chips as ligands; peptides as analytes at 1.25-20 nM, 50 uL/min; 25 °C; PBS-Tween; with 2 mM ADP

[
  {
    "binder": "NRLLTG [peptide NRLLTG]",
    "koff [s⁻¹]": "1.01e-05"
  },
  {
    "binder": "NRNNTG [peptide NRNNTG]",
    "koff [s⁻¹]": "1.03e-07"
  },
  {
    "binder": "ALLLMYRR [peptide ALLLMYRR]",
    "koff [s⁻¹]": 0.00282
  },
  {
    "binder": "ANNNMYRR [peptide ANNNMYRR]",
    "koff [s⁻¹]": 0.00386
  }
]
